Data provenance is paper PMC12461331.

Assay: in vitro
Settings: PAMPA
For each record, write down the corresponding Papp at 5 h, 10 μM.
Note: unit ×10⁻⁶ cm/s is implicit; provide only the numeric part.

Lab note: `COc1ccc(CC(=O)NC2CCN([C@@H](C)c3cccc4ccccc34)CC2)cc1` gave Papp at 5 h, 10 μM of 1.03

Lab note: `COc1ccc(CNC(=O)[C@H]2CCN([C@H](C)c3cccc4ccccc34)C2)cc1` gave Papp at 5 h, 10 μM of 0.53

Lab note: `COc1ccc(CNC(=O)C2CCN([C@@H](C)c3ccccc3)CC2)cc1` gave Papp at 5 h, 10 μM of 1.47

Lab note: `COc1ccc(CC(=O)NC2CCN([C@H](C)c3cccc4ccccc34)CC2)cc1` gave Papp at 5 h, 10 μM of 1.74
